- Test system: GVIA iPLA2 (Homo sapiens)
- Protocol: Inhibition of human recombinant GVIA iPLA2 using 400 uM Triton X-100/98.3 uM PAPC/1.7 uM 14C-labeled PAPC substrate mixedmicelles at 1 uM
Metric: inhibition (%)
// units = %; emit number, no label

Below, 4 compounds whose answers are already recorded.
* CCCCCCCCc1ccc(OCC(=O)c2nccs2)cc1 | 67
* CCCCCCCCc1ccc(OCC(=O)c2nc(CC(=O)OCC)cs2)cc1 | 76
* CCCCCCCCCCCCOCC(=O)c1nc(C(=O)OCC)cs1 | 92
* CCCCCCCCCCCCOCC(=O)c1nc(CC(=O)OCC)cs1 | 91

input: Return inhibition (reported value) for this compound: `O=C(COc1ccccc1)c1nccs1`
output: 13

input: Return inhibition (reported value) for this compound: `CCCCCCCCc1ccc(OCC(=O)c2nc3ccccc3s2)cc1`
output: 77

input: Return inhibition (reported value) for this compound: `O=C(COc1ccc(-c2ccccc2)cc1)c1nccs1`
output: 23

input: Return inhibition (reported value) for this compound: `O=C(COc1ccc(F)cc1)c1nccs1`
output: 5
